Field: pIC50. Provide a value for each of the compounds that follow.
Test system: a variety of cell types that are representative of different cancers
Test Name: Alamar Blue cell viability assay, variety of cell types representative of different cancers (Tables 12-14)
Format: cell-based
Experimental Setup: Homo sapiens, MV4-11, MV-4-11 cells, Table 13; read-out: AB: MV-4-11 (IC50)
Answers are plain numbers, as −log10 of the molar value.

Compound | Readout Type | Assay Result
O=C(NCC1CC1)c1c(=O)c2ccc(NCC(O)c3ccccc3)nc2n2c1sc1ccccc12 (stereo not drawn) | pIC50 | 5.30

Alright, here's another compound for you.
// query pIC50 value for entry CN1CCN(C(=O)c2c(=O)c3ccc(NCC(O)c4ccccc4)nc3n3c2sc2ccccc23)CC1 (stereo not drawn)
6.27
